Value source: patent US6855730B2

List of pIC50 values.
molecular target: PDGFR-β (Homo sapiens); construct: host or cells: NIH 3T3; assay: Biochemical PDGFR assay (ELISA, PDGFR-β expressing NIH 3T3 cell lysate); settings: read-out: bio PDGF IC50
Sequence (P09619 33-1106): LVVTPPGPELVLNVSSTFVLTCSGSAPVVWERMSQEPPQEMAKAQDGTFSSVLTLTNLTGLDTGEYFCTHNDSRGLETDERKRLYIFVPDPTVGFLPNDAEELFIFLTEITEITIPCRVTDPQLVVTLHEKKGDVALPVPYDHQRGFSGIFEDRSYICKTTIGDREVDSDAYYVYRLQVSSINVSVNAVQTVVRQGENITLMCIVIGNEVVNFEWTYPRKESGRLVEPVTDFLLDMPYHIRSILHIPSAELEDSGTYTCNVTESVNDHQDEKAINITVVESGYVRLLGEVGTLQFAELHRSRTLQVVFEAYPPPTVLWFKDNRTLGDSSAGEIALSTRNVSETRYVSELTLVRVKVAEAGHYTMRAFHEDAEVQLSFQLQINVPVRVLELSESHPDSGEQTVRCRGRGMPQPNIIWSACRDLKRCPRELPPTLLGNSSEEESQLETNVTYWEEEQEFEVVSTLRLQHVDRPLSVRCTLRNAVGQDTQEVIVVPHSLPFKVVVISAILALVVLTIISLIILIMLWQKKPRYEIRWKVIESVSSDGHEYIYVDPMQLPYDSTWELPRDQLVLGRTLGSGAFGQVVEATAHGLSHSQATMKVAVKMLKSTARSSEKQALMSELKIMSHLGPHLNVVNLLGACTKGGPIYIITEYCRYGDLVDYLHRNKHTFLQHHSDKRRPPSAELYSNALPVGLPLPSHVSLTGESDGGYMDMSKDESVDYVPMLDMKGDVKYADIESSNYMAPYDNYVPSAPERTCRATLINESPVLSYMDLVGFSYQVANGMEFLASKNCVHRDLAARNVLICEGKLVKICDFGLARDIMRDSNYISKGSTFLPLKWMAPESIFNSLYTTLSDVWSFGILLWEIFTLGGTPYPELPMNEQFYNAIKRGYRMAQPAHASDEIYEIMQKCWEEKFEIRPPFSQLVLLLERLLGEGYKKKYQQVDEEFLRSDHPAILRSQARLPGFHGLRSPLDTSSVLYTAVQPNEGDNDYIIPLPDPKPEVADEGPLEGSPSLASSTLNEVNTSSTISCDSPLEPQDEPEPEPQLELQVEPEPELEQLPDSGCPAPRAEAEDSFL
pIC50: −log10 of the molar value.

[
  {
    "molecule": "Cc1c(/C=C2\\C(=O)Nc3ccc(Cl)cc32)[nH]c2ccccc12 [Example 168]",
    "readoutQualifier": "<",
    "pIC50": 4.00
  },
  {
    "molecule": "CNS(=O)(=O)c1ccc2c(c1)/C(=C/c1[nH]c(C)c(C(=O)O)c1CCCN(C)C)C(=O)N2 [Example 138]",
    "readoutQualifier": "=",
    "pIC50": 4.58
  },
  {
    "molecule": "COc1ccc(/C=C2/C(=O)Nc3ccc(F)cc32)cc1C(C)C [Example 44]",
    "readoutQualifier": "<",
    "pIC50": 4.00
  },
  {
    "molecule": "CCOC(=O)c1c(C)[nH]c(/C=C2\\C(=O)Nc3ccc(C(=O)O)cc32)c1CCCN1CCOCC1 [Example 125]",
    "readoutQualifier": "=",
    "pIC50": 5.24
  },
  {
    "molecule": "O=C(O)CCc1c(/C=C2\\C(=O)Nc3cc(-c4ccccc4)ccc32)[nH]c2c1CCCC2 [Example 206]",
    "readoutQualifier": "=",
    "pIC50": 7.40
  },
  {
    "molecule": "CC(=O)Nc1ccc2c(c1)NC(=O)/C2=C\\c1ccc2c(c1)CCC(C)(C)O2 [Example 33]",
    "readoutQualifier": "<",
    "pIC50": 4.00
  },
  {
    "molecule": "O=C1Nc2ccc(Br)cc2/C1=C/c1cc2ccccc2[nH]1 [Example 165]",
    "readoutQualifier": "=",
    "pIC50": 4.31
  },
  {
    "molecule": "Cc1cc(CCC(=O)O)c(/C=C2\\C(=O)Nc3cc(-c4ccc(F)cc4)ccc32)[nH]1 [Example 107]",
    "readoutQualifier": ">",
    "pIC50": 6.11
  },
  {
    "molecule": "COc1cc(/C=C2/C(=O)Nc3ccccc32)c(-c2cccs2)cc1OC [Example 39]",
    "readoutQualifier": "<",
    "pIC50": 4.00
  },
  {
    "molecule": "CCOC(=O)c1c(C)[nH]c(/C=C2\\C(=O)Nc3ccc(S(N)(=O)=O)cc32)c1CCCN1CCCC1 [Example 130]",
    "readoutQualifier": "=",
    "pIC50": 5.63
  },
  {
    "molecule": "CCOC(=O)c1[nH]c(/C=C2\\C(=O)Nc3ccc(S(=O)(=O)N(C)C)cc32)c(CCC(=O)O)c1C [Example 147]",
    "readoutQualifier": "<",
    "pIC50": 4.00
  }
]

###

tested on: HUV-EC-C cells (VEGF, Flk-1/KDR); experiment: HUV-EC-C assay, VEGF-stimulated 3H-thymidine incorporation; assay type: cell-based; conditions: Homo sapiens, read-out: HUVEC-VEGF IC50

[
  {
    "chemicalStructure": "CN(C)C(=O)CCc1c(/C=C2\\C(=O)Nc3ccccc32)[nH]c2c1CCCC2",
    "IC50": "< 3 nM"
  },
  {
    "chemicalStructure": "Cc1c[nH]c(/C=C2\\C(=O)Nc3cccc(C)c32)c1CCC(=O)O",
    "IC50": "< 70 nM"
  },
  {
    "chemicalStructure": "O=C(CCc1c(/C=C2\\C(=O)Nc3ccccc32)[nH]c2c1CCCC2)NCCN1CCOCC1",
    "IC50": "< 30 nM"
  },
  {
    "chemicalStructure": "CNC(=O)CCc1c(/C=C2\\C(=O)Nc3ccccc32)[nH]c2c1CCCC2",
    "IC50": "< 30 nM"
  }
]

###

molecular target: flkGST (Homo sapiens); construct: GST; assay: bio flkGST assay; assay type: biochemical
Sequence (P35968 786-1356 limits assumed): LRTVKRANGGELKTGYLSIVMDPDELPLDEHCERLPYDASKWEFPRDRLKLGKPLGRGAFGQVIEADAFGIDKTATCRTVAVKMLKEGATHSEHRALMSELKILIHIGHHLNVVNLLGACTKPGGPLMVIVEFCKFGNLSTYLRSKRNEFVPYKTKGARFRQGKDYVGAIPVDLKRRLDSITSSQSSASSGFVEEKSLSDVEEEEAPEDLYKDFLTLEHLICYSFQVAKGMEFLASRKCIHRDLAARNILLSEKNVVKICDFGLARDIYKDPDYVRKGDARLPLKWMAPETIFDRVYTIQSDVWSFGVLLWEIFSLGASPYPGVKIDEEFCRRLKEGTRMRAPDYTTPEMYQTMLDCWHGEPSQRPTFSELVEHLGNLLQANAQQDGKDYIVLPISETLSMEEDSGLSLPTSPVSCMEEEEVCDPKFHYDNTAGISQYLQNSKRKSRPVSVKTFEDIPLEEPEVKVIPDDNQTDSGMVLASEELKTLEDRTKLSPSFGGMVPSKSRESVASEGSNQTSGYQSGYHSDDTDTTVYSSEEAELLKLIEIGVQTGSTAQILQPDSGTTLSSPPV
pIC50: −log10 of the molar value.
Entries and their pIC50
assayReadout: pIC50

[
  {
    "chemicalStructure": "CCOC(=O)c1c(C)[nH]c(/C=C2\\C(=O)Nc3ccc(S(N)(=O)=O)cc32)c1CCCN1CCCC1",
    "assayReadout": "pIC50",
    "readoutValue": 4.89
  },
  {
    "chemicalStructure": "Cc1cccc2c1/C(=C/c1[nH]c3c(c1CCC(=O)O)CCCC3)C(=O)N2",
    "assayReadout": "pIC50",
    "readoutValue": 5.44
  },
  {
    "chemicalStructure": "COc1ccc(/C=C2/C(=O)Nc3ccc(F)cc32)cc1C1CCCC1",
    "assayReadout": "pIC50",
    "readoutValue": 4.62
  },
  {
    "chemicalStructure": "COc1ccccc1-c1ccc2c(c1)NC(=O)/C2=C\\c1[nH]c(C)cc1CCC(=O)O",
    "assayReadout": "pIC50",
    "readoutValue": 5.57
  },
  {
    "chemicalStructure": "O=C(CCc1c(/C=C2\\C(=O)Nc3ccccc32)[nH]c2c1CCCC2)NCCN1CCOCC1",
    "assayReadout": "pIC50",
    "readoutValue": 5.60
  },
  {
    "chemicalStructure": "O=C1Nc2ccc(C(=O)O)cc2/C1=C/c1ccc2[nH]ccc2c1",
    "assayReadout": "pIC50",
    "readoutValue": 5.87
  },
  {
    "chemicalStructure": "COc1ccccc1-c1ccc2c(c1)NC(=O)/C2=C\\c1[nH]c2c(c1CCC(=O)O)CCCC2",
    "assayReadout": "pIC50",
    "readoutValue": 5.82
  },
  {
    "chemicalStructure": "COc1cccc(-c2ccc3c(c2)NC(=O)/C3=C\\c2[nH]cc(C)c2CCC(=O)O)c1",
    "assayReadout": "pIC50",
    "readoutValue": 6.24
  }
]

###

molecular target: EGFR (Homo sapiens, UniProt P00533); experiment: EGFR assay (cellular ELISA, NIH 3T3/C7 cells); assay type: cell-based; set-up: expressed in transfected cells; host or cells: NIH 3T3/C7; details: read-out: cell EGF IC50
Sequence (P00533 25-1210): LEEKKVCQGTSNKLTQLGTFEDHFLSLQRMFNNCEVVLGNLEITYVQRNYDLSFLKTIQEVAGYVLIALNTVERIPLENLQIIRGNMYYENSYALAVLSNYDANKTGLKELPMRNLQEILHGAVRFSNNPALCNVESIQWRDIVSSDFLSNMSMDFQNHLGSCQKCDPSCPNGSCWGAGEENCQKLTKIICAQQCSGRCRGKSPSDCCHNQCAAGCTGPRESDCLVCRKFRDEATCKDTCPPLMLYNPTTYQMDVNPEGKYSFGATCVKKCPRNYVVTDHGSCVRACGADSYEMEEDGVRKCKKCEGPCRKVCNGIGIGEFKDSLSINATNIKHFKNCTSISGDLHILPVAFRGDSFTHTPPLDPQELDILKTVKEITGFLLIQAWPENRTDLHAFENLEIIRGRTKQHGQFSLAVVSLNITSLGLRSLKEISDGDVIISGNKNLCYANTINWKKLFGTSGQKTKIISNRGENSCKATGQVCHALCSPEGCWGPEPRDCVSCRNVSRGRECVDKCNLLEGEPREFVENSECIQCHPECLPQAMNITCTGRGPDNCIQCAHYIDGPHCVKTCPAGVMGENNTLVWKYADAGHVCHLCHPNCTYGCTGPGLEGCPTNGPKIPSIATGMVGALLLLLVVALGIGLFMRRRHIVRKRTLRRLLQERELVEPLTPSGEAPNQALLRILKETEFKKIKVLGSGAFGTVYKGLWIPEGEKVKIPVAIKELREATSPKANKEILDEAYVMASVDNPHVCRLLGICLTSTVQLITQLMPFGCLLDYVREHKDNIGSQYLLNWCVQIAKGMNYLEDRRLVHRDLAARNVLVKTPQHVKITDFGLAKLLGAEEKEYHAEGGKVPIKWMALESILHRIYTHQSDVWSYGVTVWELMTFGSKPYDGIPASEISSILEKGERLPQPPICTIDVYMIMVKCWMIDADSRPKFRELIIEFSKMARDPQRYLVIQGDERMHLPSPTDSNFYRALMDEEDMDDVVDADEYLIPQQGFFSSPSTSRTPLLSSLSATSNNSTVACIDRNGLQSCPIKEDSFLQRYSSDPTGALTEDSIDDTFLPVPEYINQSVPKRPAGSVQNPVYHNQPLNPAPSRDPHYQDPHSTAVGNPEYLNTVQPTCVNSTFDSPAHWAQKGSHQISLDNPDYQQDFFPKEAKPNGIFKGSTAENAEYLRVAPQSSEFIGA
pIC50: −log10 of the molar value.

[
  {
    "chemicalStructure": "COc1ccc2c(c1)/C(=C/c1[nH]cc(C)c1CCC(=O)O)C(=O)N2",
    "pIC50": "< 4.00"
  },
  {
    "chemicalStructure": "COc1c(C(C)C)cc(/C=C2/C(=O)Nc3ccccc32)cc1C(C)C",
    "pIC50": 4.34
  },
  {
    "chemicalStructure": "COc1cc(C)c(C=C2C(=O)Nc3cc(NC(C)=O)ccc32)cc1C(C)C",
    "pIC50": 4.51
  },
  {
    "chemicalStructure": "COc1cc(C)c(/C=C2/C(=O)Nc3ncccc32)cc1C(C)C",
    "pIC50": "< 4.00"
  },
  {
    "chemicalStructure": "O=C(O)CCc1c(/C=C2\\C(=O)Nc3ncccc32)[nH]c2c1CCCC2",
    "pIC50": "< 4.90"
  },
  {
    "chemicalStructure": "COc1cccc(-c2ccc3c(c2)NC(=O)/C3=C\\c2[nH]c3c(c2CCC(=O)O)CCCC3)c1",
    "pIC50": "< 4.00"
  },
  {
    "chemicalStructure": "O=C(O)CCc1ccccc1/C=C1/C(=O)Nc2ccccc21",
    "pIC50": "< 4.00"
  },
  {
    "chemicalStructure": "COc1ccc(/C=C2/C(=O)Nc3ccc(Cl)cc32)cc1C1CCCCC1",
    "pIC50": "< 4.00"
  },
  {
    "chemicalStructure": "CN(C)C(=O)CCc1c(/C=C2\\C(=O)Nc3ccccc32)[nH]c2c1CCCC2",
    "pIC50": "< 4.00"
  },
  {
    "chemicalStructure": "COc1cc(C)c(C=C2C(=O)Nc3ccc(Cl)cc32)cc1C(C)C",
    "pIC50": 4.46
  },
  {
    "chemicalStructure": "COc1cc(/C=C2/C(=O)Nc3ccccc32)c(-c2cccs2)cc1OC",
    "pIC50": "< 4.00"
  },
  {
    "chemicalStructure": "COc1ccc(/C=C2/C(=O)Nc3ccc(F)cc32)cc1C(C)C",
    "pIC50": 4.11
  },
  {
    "chemicalStructure": "CC(=O)Nc1ccc2c(c1)NC(=O)/C2=C/c1ccc(OCCN2CCOCC2)c(-c2cccs2)c1",
    "pIC50": 4.10
  },
  {
    "chemicalStructure": "COc1ccc(/C=C2/C(=O)Nc3cc(NC(C)=O)ccc32)cc1-c1ccsc1",
    "pIC50": "< 4.00"
  },
  {
    "chemicalStructure": "CC(=O)Nc1ccc2c(c1)NC(=O)/C2=C/c1ccc(OCCN2CCOCC2)c(-c2ccsc2)c1",
    "pIC50": "< 4.00"
  },
  {
    "chemicalStructure": "CNC(=O)CCc1c(/C=C2\\C(=O)Nc3ccccc32)[nH]c2c1CCCC2",
    "pIC50": "< 4.00"
  }
]
